Assay: log P by LC-MS, method [b], acid range pH 2.7
Format: physicochemical
Settings: pH 2.7
log p values, listed per item

// worked examples, log p included
CC1COC(=O)N1c1cccc(Nc2ncc(C(F)(F)F)c(NC3CC3)n2)c1 (centres unmarked) [Example 19] : 2.4[b]
CC(C)Nc1nc(Nc2cccc(N3C(=O)OCC3C(C)C)c2)ncc1Br (centres unmarked) [Example 129] : 2.24[b]
CC(C)Nc1nc(Nc2cccc(N3CCOC3=O)c2)ncc1Cl [Example 138] : 1.56[b]
CCC1CC(C)C(=O)N1c1cccc(Nc2ncc(Cl)c(NCC3CC3)n2)c1 (centres unmarked) [Example 212] : 2.33[b]

We now examine a further compound.
Recorded log p (compound CC1CC(Nc2nc(Nc3cccc(N4C(=O)CC(C)(C)C4=O)c3)ncc2Cl)C1 (centres unmarked) [Example 259] ): 2.43[b]

* * *

Experiment: log P by LC-MS, method [b], acid range pH 2.7
Type: physicochemical
Settings: pH 2.7
ASSAY_ENDPOINT: log p

Known log p results, listed for orientation:
CC1(C)CC(=O)N(c2cccc(Nc3ncc(C(F)(F)F)c(NC4CCC4)n3)c2)C1=O : 3.03[b]
CCC1CC(C)C(=O)N1c1cccc(Nc2ncc(Br)c(NC3CC3)n2)c1 (stereo not drawn) : 2.32[b]
CC1CCC(=O)N1c1cccc(Nc2ncc(Br)c(NC3CCC3)n2)c1 (stereo not drawn) : 1.97[b]

For record CN(c1nc(Nc2cccc(N3CCCC3=O)c2)ncc1C(F)(F)F)C1CCCC1 the listed log p is 3.56[b]

Consider CN(c1cccc(N2CCCC2=O)c1)c1ncc(Cl)c(N(C)C2CC2)n1 . Its measured log p is 1.98[b]

# log p of O=c1ccccn1-c1cccc(Nc2ncc(Cl)c(NC3CCC3)n2)c1 = 2.17[b]

Documented log p of CC1(C)CC(=O)N(c2cccc(Nc3ncc(Br)c(NCC(F)F)n3)c2)C1=O : 2.08[b]

# log p of COCC(C)Nc1nc(Nc2ccc(N3CCCC3=O)cc2)ncc1Cl (stereo not drawn) = 1.51[b]

Lab book: log p of CC1CC(=O)N(c2cccc(Nc3ncc(Br)c(NCC4CC4)n3)c2)C1=O (stereo not drawn) noted as 1.78[b]

* * *

Assay: log P by HPLC on reversed-phase columns (C 18), method [a], acidic range pH 2.3
Format: physicochemical
Settings: pH 2.3, log p
Catalogue of molecules with associated chromatographic logP

Below are worked cases with known answers.
O=C1OCCN1c1cccc(Nc2ncc(Cl)c(NC3CCC3)n2)c1 : 1.64
S=C1CCCN1c1cccc(Nc2ncc(Cl)c(NC3CC3)n2)c1 : 1.69

Kindly review the next molecule as well.
chromatographic logP reported for this molecule CCOC1CCC(=O)N1c1cccc(Nc2ncc(Cl)c(NC3CC3)n2)c1 (stereo not drawn) : 1.65

* * *

Below, each entry is listed alongside its reported log P (pH 2.3).
Experiment: log P by HPLC on reversed-phase columns (C 18), method [a], acidic range pH 2.3
Format: physicochemical
Conditions: pH 2.3
The answer should be a number; do not append a unit.

// below: answered compounds
CCC1CC(C)C(=O)N1 (stereo not shown) : 0.96
O=C1OCCN1c1ccc(Nc2ncc(C(F)(F)F)c(Cl)n2)cc1 : 2.76
CC(=O)N(c1cccc(N2CCCC2=O)c1)c1ncc(Cl)c(NCC2CC2)n1 : 2.35

Next:
For this compound ( FC(F)CNc1nc(Cl)ncc1Cl ), measured log P (pH 2.3) is 1.96

Data provenance: patent US20110245242A1
